This collection of values is drawn from patent US20210292393A1.

# EXPERIMENTAL_SYSTEM: SARS-CoV spike protein (SARS-CoV, UniProt P59594 14-1190)
median fluorescence intensity, fold over isotype control for assorted binders
MEASUREMENT_NAME: median fluorescence intensity, fold over isotype control (fold over isotype)

BINDER	UNITS_LABEL	RECORDED_NUMBER
antibody 380 (antibody, V domains shown) VH: QVQLVESGGGVVQPGRSLRLSCAASGFTLKNYGMHWVRQAPGKGLEWVIVLSFDGSDEYKADSVRGRFTVSRDNSKNTLFLQMNSLRPDDTAVYYCAREQPTMIEGGRGPFDIWGQGTMVTVSS VL: EVVMTQSPATLSVSPGDRATLSCRASQGVNSNLAWYQQKPGQAPRLLIYAASTRATGIPARFSASGSGTHFTLTISSLQSEDFAVYYCLQYNNWPPWTFGQGTKLEIK	fold over isotype	1.21
antibody 339 (antibody, V domains shown) V domain 1: QITLKESGPTLVKPTETLTLTCSFSGFSLTRTGEAAGWIRQAPGRALEWVTVIFWDDDKRYSPSLQSRLTVTKDTSKNQVVLTMTNVARFDTATYFCWAMGGPGKEYFGQGTQVAVSS V domain 2: QSVLTQPPSVSGAPGQRVTISCTGTSSSIGPYSDVHWYQHVSGKAPRLLIFGNSNRPSGVPDRFSGSKSGTSASLVIAGLQAEDEADYYCQSYDSSLGEIYVFGTGTTVTVL	fold over isotype	1.27
antibody 366 (antibody, V domains shown) VH: QVQLVESGGGVVQPGRSLRLSCAASGFTFSSYAMHWVRQAPGKGLEWVAVISYDGSNKYYADSVKGRFTISRDNSKNTLYLQMNSLRAEDTAVYYCARGLVGYNWFDPWGQGTLVTVSS VL: DIQMTQSPSSVSASVGDRVTITCRASQGISSWLAWYQQKPGKAPKLLIYAASSLQSGVPSRFSGSGSGTDFTLTISSLQPEDFATYYCQQANSFTFGPGTKVDIK	fold over isotype	1.23
antibody 368 (antibody, V domains shown) V domain 1: QITLKESGPTLVKPTETLTLTCAFSGFSLTKTGEAAGWIRQAPGRALEWVTVIFWDDDKRYSPSLQNRLTVTKDTSKNVVVLTMTNVDPVDTATYFCWAMGGPGKEFFGQGTRVAVSS V domain 2: QSVLTQPPSVSGAPGQRVTVSCTGTSSSIGPYSDVHWYQHIPGKAPRLLIFGTSNRPSGVPARFSGSKSGSSASLVIAGLQAEDEADYYCQSYDSSLGEIYVFGTGTTVTVL	fold over isotype	1.09
antibody 328 (antibody, V domains shown) VH: QVQLQESGPGLVKPSGTLSLTCAVSGGSISSSNWWSWVRQPPGKGLEWIGEIYHSGSTNYNPSLKSRVTISVDNSKNQFSLKLSSVTAADTAVYYCARESVAAAGISYYYYGMDVWGQGTTVTVSS VL: DIQMTQSPSSLSASVGDRVTITCRASQGIRNDLGWYQQKPGKAPKRLIYAASSLQSGVPSRFSGSGSGTEFTLTVSGLQPEDFATYYCLQYNSSPLTFGGGTKVEIK	fold over isotype	1.22
